Origin of the recorded values: ChEMBL document CHEMBL1764975

Each record here notes measured logD.
# Assay details: Octanol-water partition coefficient, log D of the compound at pH 7.4 by shake-flask method
# Type: physicochemical
Answer with a number only.

Structure smiles	logD
COc1cc(O)c2c(c1Br)C(=O)OCC(=O)NCC(=O)N[C@H](c1nc(C)no1)CSC2	1.4
COc1cc(O)c2c(c1Br)C(=O)OCCCCC(=O)N[C@H](c1nc(C)no1)CSC2	2.18
COc1cc(O)c2c(c1Cl)C(=O)OCCCCC(=S)N[C@H](c1nc(CN)no1)CSC2.Cl	1.89

Exercise: Tell me measured logD for COc1cc(O)c2c(c1C)C(=O)OCC(=O)NCC(=S)N[C@H](c1nc(C)no1)CSC2 please.
Solution: 2.32

Exercise: Using the record for COc1cc(O)c2c(c1C)C(=O)OCCCCC(=S)N[C@H](c1nc(CN)no1)CSC2.Cl , state its measured logD.
Solution: 1.85

Exercise: Give logD for COc1cc(O)c2c(c1Br)C(=O)OCCCCC(=S)N[C@H](c1nc(C)no1)CSC2
Solution: 3.23

Exercise: For the compound COc1cc(O)c2c(c1C)C(=O)OCCCCC(=S)N[C@H](c1nc(C)no1)CSC2 , report logD.
Solution: 3.09

Exercise: Let me know recorded logD for COc1cc(O)c2c(c1Br)C(=O)OCC(=O)NCC(=S)N[C@H](c1nc(C)no1)CSC2 , thanks.
Solution: 2.61

Exercise: Specify measured logD for COc1cc(O)c2c(c1C)C(=O)OCCCCC(=O)N[C@H](c1nc(C)no1)CSC2 .
Solution: 1.99

Exercise: Report logD, nothing else, for this compound: COc1cc(O)c2c(c1C)C(=O)OCC(=O)NCC(=O)N[C@H](c1nc(C)no1)CSC2
Solution: 1.05
